target: Hexose transporter 1 (Plasmodium falciparum) (UniProt O97467); assay: ST_JUDE_LEISH: Cytotoxicity at 2uM final concentration against transgenic Leishmania Mexicana promastigotes LmPfHT that are glucose transport deficient and complemented with the Plasmodium falciparum hexose transporter. Activity is measured by DNA content using SYBR green in vitro; type: functional
Observed Property: inhibition (%)
Your answer is read as %, so omit the unit and give the number.

Summary line: CCCNc1ccc(-c2cc(C(N)=O)c3[nH]cc(C4CCN(S(=O)(=O)CC)CC4)c3c2)cn1 , Hexose transporter 1 (Plasmodium falciparum) (UniProt O97467), reported inhibition = 6.54

Summary line: Cc1cc(N2CCCC2)nc(Nc2ccc(NC(=O)C(C)(C)C)cc2)n1 , Hexose transporter 1 (Plasmodium falciparum) (UniProt O97467), reported inhibition = 2.7

Summary line: COc1ccc2nccc(NC(=O)N3CCC(NCc4cc5c(F)ccc(F)c5[nH]4)CC3)c2n1 , Hexose transporter 1 (Plasmodium falciparum) (UniProt O97467), reported inhibition = 19.2

Summary line: CC(C)C[C@@H](/C=N/NC(N)=O)NC(=O)[C@H](CC(C)C)NC(=O)[C@H](CC(C)C)NC(=O)OCc1ccccc1 , Hexose transporter 1 (Plasmodium falciparum) (UniProt O97467), reported inhibition = 6.9

Summary line: CN(C)Cc1cccc(CNC(=O)c2sccc2OCc2ccc(Cl)cc2)c1 , Hexose transporter 1 (Plasmodium falciparum) (UniProt O97467), reported inhibition = -3.67

Summary line: FC(F)(F)c1ccc2[nH]c(-c3ccc(-c4cccc(CNCCN5CCNCC5)c4)cc3)nc2c1 , Hexose transporter 1 (Plasmodium falciparum) (UniProt O97467), reported inhibition = -0.94

Summary line: Cc1cc(N2CCN(C)CC2)nc2ccc(NC(=O)c3cccc(N(C)C)c3)cc12 , Hexose transporter 1 (Plasmodium falciparum) (UniProt O97467), reported inhibition = 7.99

Summary line: Cc1cc(-c2cccc(CNCc3ccccc3)c2)ccc1S(=O)(=O)NCCN1CCCC1 , Hexose transporter 1 (Plasmodium falciparum) (UniProt O97467), reported inhibition = 8.53

Summary line: N=C(N)NN=Cc1c[nH]c2ccc(-c3ccccc3)cc12 , Hexose transporter 1 (Plasmodium falciparum) (UniProt O97467), reported inhibition = 0.13

Summary line: CC1(C)CCNc2cc(NC(=O)c3ccc(-c4ncccc4C(F)(F)F)cc3)ccc21 , Hexose transporter 1 (Plasmodium falciparum) (UniProt O97467), reported inhibition = 1.14

Summary line: Cc1cc(N)nc2ccc(-c3ccc(CCN)cc3)cc12 , Hexose transporter 1 (Plasmodium falciparum) (UniProt O97467), reported inhibition = 3.64

Summary line: c1ccc(Oc2cccc(Nc3ccnc4ccccc34)c2)cc1 , Hexose transporter 1 (Plasmodium falciparum) (UniProt O97467), reported inhibition = 10.4

Summary line: CCNc1cc(C(=O)N[C@@H](Cc2ccccc2)[C@H](O)CNCC(C)C)cc(N2CCCC2=O)c1 , Hexose transporter 1 (Plasmodium falciparum) (UniProt O97467), reported inhibition = 1.42

Summary line: CC(C)(C)Oc1ccc(CC2NC3(C(=O)N(Cc4ccc(C(C)(C)C)cc4)c4ccccc43)C3C(=O)N(c4ccc(Br)cc4)C(=O)C23)cc1 (centres undefined) , Hexose transporter 1 (Plasmodium falciparum) (UniProt O97467), reported inhibition = 3

Summary line: CC(=O)Nc1ccc(CNCCc2ccc(NC(=O)c3cc(Cl)cc(Cl)c3)cc2)cc1 , Hexose transporter 1 (Plasmodium falciparum) (UniProt O97467), reported inhibition = 0.23

Summary line: COc1ccc2cc(C(=O)Nc3ccc4c(c3)CCN(C3CCC3)CC4)ccc2c1 , Hexose transporter 1 (Plasmodium falciparum) (UniProt O97467), reported inhibition = 2

Summary line: O=C(/C=C/c1ccc(-c2nc3ccc(Cl)cc3[nH]2)cc1)NC1CCN(Cc2ccccc2)CC1 , Hexose transporter 1 (Plasmodium falciparum) (UniProt O97467), reported inhibition = 1.66

Summary line: Nc1c(Cl)cc(C(O)CNCCCCCCCCCc2ccccn2)cc1Cl (centres undefined) , Hexose transporter 1 (Plasmodium falciparum) (UniProt O97467), reported inhibition = -0.21

Summary line: Cn1cnnc1Sc1ccc(CN2CCOc3ccc(C4=CCCCC4)cc3C2)o1 , Hexose transporter 1 (Plasmodium falciparum) (UniProt O97467), reported inhibition = 1.97

Summary line: CN(C)Cc1cccc(-c2ccc(NC(=O)c3ccc4c(=O)n(CC5CCCO5)cnc4c3)cc2)c1 (centres undefined) , Hexose transporter 1 (Plasmodium falciparum) (UniProt O97467), reported inhibition = 22.4

Summary line: CC(O)CNc1nc2ccccc2n1CC(=O)Nc1cccc(C(=O)Nc2cccc(C(F)(F)F)c2)c1 (centres undefined) , Hexose transporter 1 (Plasmodium falciparum) (UniProt O97467), reported inhibition = 1.81

Summary line: CC(C)CC(NC(=O)c1ccc(F)cc1)C(=O)N[C@H](/C=N/N1CCNC1=O)CC(C)C (some centres undefined) , Hexose transporter 1 (Plasmodium falciparum) (UniProt O97467), reported inhibition = 4.41

Summary line: CCCNC[C@@H](O)[C@H](Cc1ccccc1)NC(=O)c1cc2c3c(c1)c(CC)cn3CCS(=O)(=O)N2C , Hexose transporter 1 (Plasmodium falciparum) (UniProt O97467), reported inhibition = 0.74

Summary line: COc1ccc(N2CCN(CCc3ccc(NC(=O)c4ccc([N+](=O)[O-])cc4)cc3)CC2)c(OC)c1 , Hexose transporter 1 (Plasmodium falciparum) (UniProt O97467), reported inhibition = 6.72

Summary line: CCCCc1ccc(NC(=O)Nc2cccc(CCNCc3ccccc3)c2)cc1 , Hexose transporter 1 (Plasmodium falciparum) (UniProt O97467), reported inhibition = 11.4

Summary line: O=C(/C=C/c1ccc(Cl)c(Cl)c1)NCCCCCN1CCN(C(=O)Nc2cccc(F)c2)CC1 , Hexose transporter 1 (Plasmodium falciparum) (UniProt O97467), reported inhibition = 2.95

Summary line: CC(C)(C)c1ccc(CNC(=O)c2ccc(CNC3CCC(N)CC3)s2)cc1 (centres undefined) , Hexose transporter 1 (Plasmodium falciparum) (UniProt O97467), reported inhibition = 0.91

Summary line: COc1cc(NC(=O)/C=C/c2ccccc2OC(F)(F)F)cc(OCCN2CCC(O)(c3ccccc3)CC2)c1 , Hexose transporter 1 (Plasmodium falciparum) (UniProt O97467), reported inhibition = 5.55

Summary line: CCCCC(=O)Nc1nc2ccc([N+](=O)[O-])cc2s1 , Hexose transporter 1 (Plasmodium falciparum) (UniProt O97467), reported inhibition = 2.81

Summary line: Cc1csc(NC(=O)c2cn(-c3ccccc3)nc2-c2cccs2)n1 , Hexose transporter 1 (Plasmodium falciparum) (UniProt O97467), reported inhibition = 4.44

Summary line: Cc1ccc(C2CCN(CCCCNC(=O)c3ccc(-c4ccc(C#N)cc4)cc3)CC2)c(O)c1 , Hexose transporter 1 (Plasmodium falciparum) (UniProt O97467), reported inhibition = 7.29

Summary line: NC(=O)c1cc2nc(Nc3ccc(F)cc3)nc(NC3CCC3)c2[nH]1 , Hexose transporter 1 (Plasmodium falciparum) (UniProt O97467), reported inhibition = 1.11

Summary line: CS(=O)(=O)Nc1cccc(-c2cnc3[nH]cc(-c4ccc(C(=O)O)cc4)c3c2)c1 , Hexose transporter 1 (Plasmodium falciparum) (UniProt O97467), reported inhibition = 0.36

Summary line: COc1cccc2c(N/N=C/c3ccccc3[N+](=O)[O-])cc(C)nc12 , Hexose transporter 1 (Plasmodium falciparum) (UniProt O97467), reported inhibition = 0.03

Summary line: COc1ccc(Nc2nc(NC3CCN(Cc4ccccc4)CC3)cc(-c3ccncc3)n2)cc1 , Hexose transporter 1 (Plasmodium falciparum) (UniProt O97467), reported inhibition = -0.17

Summary line: CCCCC(=O)N(CCOC)Cc1ccc(-c2ccc(CNCCC)cn2)cc1 , Hexose transporter 1 (Plasmodium falciparum) (UniProt O97467), reported inhibition = 6.86

Summary line: CCCc1cc(N2CCC(N3CCCC3)CC2)nc(Nc2ccc(OC)cc2)n1 , Hexose transporter 1 (Plasmodium falciparum) (UniProt O97467), reported inhibition = 2.18

Summary line: CCOc1ccc(Br)cc1/C=C/C(=O)Nc1ccc2c(c1)CCCN(C)C2 , Hexose transporter 1 (Plasmodium falciparum) (UniProt O97467), reported inhibition = 10.4

Summary line: COc1ccc(CNC(=O)Nc2cccc(-c3csc(NC(=N)N)n3)c2)cc1 , Hexose transporter 1 (Plasmodium falciparum) (UniProt O97467), reported inhibition = -0.98
